Reported viability increase values follow for various compounds
Assay: viability gain of MRP-1-high H69AR cells under doxorubicin, pilot screen, MRP-1 activator project, CellTiter-Glo, duplicate (AID 807);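 also: compound pretreatment 18-22 h then 72 h combined with doxorubicin; 0% = doxorubicin alone and 100% = vehicle without doxorubicin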
Conditions: H69AR viability with doxorubicin, CellTiter-Glo luminescence; at 10 µM; active compounds read high
Respond numerically; units are % and should not be typed.

Worked cases, viability increase given:
[[record]]
compound = "COc1ccccc1N1CCN(C2=CC(=O)CCC2)CC1"
recorded_result = -1.22

[[record]]
compound = "C=C(C)Cn1c(CCCNC(=O)CC)nc2ccccc21"
recorded_result = -1.27

[[record]]
compound = "CC1CCCC(C)N1C(=O)Cn1c(=O)sc2ccccc21 (configuration not stated)"
recorded_result = -3.08

[[record]]
compound = "COc1ccc(NC(=O)C2CCN(S(=O)(=O)c3cccnc3)CC2)cc1Cl"
recorded_result = -3.56

[[record]]
compound = "Cc1cccc(N(C)C(=O)CCS(=O)(=O)c2cccc3nonc23)c1"
recorded_result = -4.98


# next compound below
Prompt: Field request: viability increase | item: CCOC(=O)c1ccc(NC(=O)CSc2nnc(Cn3c(=O)sc4ccccc43)n2C)cc1
Completion: -2.6

====

Assay: growth suppression of beta-catenin knockout HCT116, pilot screen, human colon tumor cells (AID 823);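 also: 0% = wells killed by 20 µM Hyamine and 100% = untreated DMSO cell wells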
Settings: CellTiter-Glo, 60 h, at 10 µM
Results filed as inconclusive are left out. Calls of active or inactive are those of the source.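 The calls were made as follows: active = cell viability at or below a set limit in both duplicate runs, the limit being the all-compound median minus 4 SD (cut at about 23% in these data, passing the limit was not always enough); inconclusive = no clear call, values can overlap the other calls; inactive = the rest.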
Log the outcome using a class from 1 for active, 0 for inactive

Field: example entries. Status: answers known.
[[record]]
compound = "CC(=O)c1ccc(OCC(O)COc2ccc(C(C)=O)cc2)cc1"
assigned_class = 0

[[record]]
compound = "CC1CC(C)CN(C(=O)C(NS(=O)(=O)c2ccc3c(c2)oc(=O)n3C)C(C)C)C1 (stereo not given)"
assigned_class = 0


Prompt: Tell me the recorded outcome of this test for COCCOC(=O)c1c(C)oc2ccc(OCC=C(C)C)cc12 .
Completion: 0

Prompt: Tell me the recorded outcome of this test for COc1cccc(C2NC(=O)NC(C)=C2C(=O)Nc2cc(OC)ccc2OC)c1 (stereo not given) .
Completion: 0

Prompt: Tell me the recorded outcome of this test for Cc1ccc(-n2ncc3c(=O)[nH]c(SCC(=O)N4CCCCC4)nc32)cc1 .
Completion: 0

Prompt: Tell me the recorded outcome of this test for CCOC(=O)Cn1c(=O)oc2cc(S(=O)(=O)NC3CCCc4ccccc43)ccc21 (stereo not given) .
Completion: 0

Prompt: Tell me the recorded outcome of this test for Fc1cc2nc(-c3ccncc3)[nH]c2cc1F .
Completion: 0

Prompt: Tell me the recorded outcome of this test for COc1ccc(N2C(=O)C3CCCN3C2c2ccc(C)cc2)cc1 (stereo not given) .
Completion: 0

Prompt: Tell me the recorded outcome of this test for CCOC(=O)CNC(=O)CSc1nnc(-c2ccco2)n1Cc1ccco1 .
Completion: 0

Prompt: Tell me the recorded outcome of this test for CC1(C)CC2(CC(C)(C)N1)OC(=O)N1CCc3ccccc3C12C (stereo not given) .
Completion: 0

Prompt: Tell me the recorded outcome of this test for O=C(Cn1cc2c(n1)CCCCC2)NCc1cccs1 .
Completion: 0

Prompt: Tell me the recorded outcome of this test for c1ccc(C(Cc2nc(-c3cccnc3)no2)c2ccccc2)cc1 .
Completion: 0

Prompt: Tell me the recorded outcome of this test for COc1ccc(C)c2sc(=NC(=O)C(C)C)n(C)c12 .
Completion: 0

====

Test: Restrictive medium S. cerevisiae growth inhibition, OD615, pilot screen of yeast lifespan reduction project, restrictive growth control (AID 706);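 also: modified DeaD lifespan yeast strain shifted to restrictive glucose medium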
Details: OD615, 48 h, at 10 µM, active compounds read high
Measured Endpoint: growth inhibition (%)
Respond numerically; units are % and should not be typed.

Prompt: Field request: growth inhibition | item: CCOc1ccc(C2CC(=O)NC(SC)=C2C#N)cc1 (stereo not drawn)
Completion: -15.5

Prompt: Field request: growth inhibition | item: COC(=O)C(Cc1ccccc1)NC(=O)CSc1nc(C)cc(=O)[nH]1 (stereo not drawn)
Completion: -4.86

Prompt: Field request: growth inhibition | item: CC(=O)N1CCc2c(sc(NC(=O)C3CC3)c2-c2nc3ccccc3s2)C1
Completion: -2.89

====

Experiment: inhibitors of the yeast RAM network, pilot screen, dse1pr::URA3 reporter, 5-FOA selection (AID 869);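 also: 0% = DMSO wells with no growth and 100% = 10 µM 1-NA-PP1 with full growth; RAM network block rescues cells from 5-FOA so hits raise OD615 growth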
Conditions: S. cerevisiae dse1pr::URA3 5-FOA growth, OD615, 2 d; at 10 µM; active compounds read high; strain carries analog-sensitive mutant Cbk1 kinase
Reported inhibition values follow for various compounds
Respond numerically; units are % and should not be typed.

[[record]]
compound = "CC1CCCN(C(=O)c2ccc3c(c2)C(=O)N(CCC2=CCCCC2)C3=O)C1 (centres undefined)"
recorded_result = 0.28

[[record]]
compound = "Oc1c(C(c2cccs2)N2CCN(c3ccccc3)CC2)sc2ncnn12 (centres undefined)"
recorded_result = 1.53

[[record]]
compound = "CC(C)c1cc(=O)oc2c3c4c(cc12)CCCN4CCC3"
recorded_result = 1.84

[[record]]
compound = "COc1cc(S(=O)(=O)N2CCCCCC2)c(OC)cc1Br"
recorded_result = -0.43

[[record]]
compound = "Clc1ccccc1C1CC(c2ccccc2)Nc2ncnn21 (centres undefined)"
recorded_result = 2.05

[[record]]
compound = "O=C(O)CCCCCN1C(=O)c2ccc(C(=O)O)cc2C1=O"
recorded_result = 1.88

[[record]]
compound = "COc1ccc(-n2nc3c(c2NC(=O)c2ccc(Br)cc2)CS(=O)C3)cc1 (centres undefined)"
recorded_result = 0.805

[[record]]
compound = "CCc1nc(SCC(=O)c2ccc(C)c(C)c2)n[nH]1"
recorded_result = 0.56

[[record]]
compound = "COc1ccc(-n2c(Cn3c(=O)sc4ccccc43)nnc2SCC(=O)N2CCCCC2)cc1"
recorded_result = 0.19

[[record]]
compound = "COc1ccc2c(c1)-c1nc(NC(=O)c3cccs3)sc1CC2"
recorded_result = 3.16


Prompt: Field request: inhibition | item: Cn1c(SCc2nc3ccccc3[nH]2)nnc1-c1cccnc1
Completion: 2.94

Prompt: Field request: inhibition | item: CCOCCn1c(-c2ccc(OC)cc2)nc2ccccc21
Completion: 1.63

Prompt: Field request: inhibition | item: COc1cccc(C2CC(c3cccc(C)c3)n3ncnc3N2)c1 (centres undefined)
Completion: 0.92

Prompt: Field request: inhibition | item: O=C(NCc1ccco1)C1CCN(c2nnc(-n3cccc3)s2)CC1
Completion: 0.985

Prompt: Field request: inhibition | item: COCc1nc(-c2ccc(-c3ccc(OC)cc3)nc2OC)no1
Completion: 1

Prompt: Field request: inhibition | item: O=C(O)CCC(=O)CCC(=O)c1ccc(Cl)cc1
Completion: -0.55

Prompt: Field request: inhibition | item: CCCNc1nc2c(c(=O)[nH]c(=O)n2C)n1Cc1ccc(F)cc1
Completion: 0.945

Prompt: Field request: inhibition | item: CCOc1ccc(-c2noc(CCC(=O)O)n2)cc1
Completion: 1.56

Prompt: Field request: inhibition | item: O=C(O)c1ccc(NS(=O)(=O)c2cccc3cccnc23)cc1
Completion: 2.25

====

Assay: reversal of MRP1-mediated doxorubicin resistance, pilot screen, H69AR cells, doxorubicin co-treatment (AID 601)
Settings: H69AR cells + 2 uM doxorubicin, CellTiter-Glo, 72 h; at 10 µM; active compounds read high
Reported differential viability (reversal) values follow for various compounds
Respond numerically; units are % and should not be typed.

Worked cases, differential viability (reversal) given:
[[record]]
chem_smiles = "O=C(c1ccco1)N1CCN(c2ccc(Cl)cc2)CC1"
recorded_result = 19.1

[[record]]
chem_smiles = "O=C(c1ccccc1-c1ccccc1)N1CCN(c2ccccn2)CC1"
recorded_result = -57.7


# next compound below
Prompt: Field request: differential viability (reversal) | item: CCOCCn1cnc2sc(C(=O)Nc3nc(C)c(C(=O)OCC)s3)c(C)c2c1=O
Completion: -14.5

====

Assay: Restrictive medium S. cerevisiae growth inhibition, OD615, pilot screen of yeast lifespan reduction project, restrictive growth control (AID 706);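 also: modified DeaD lifespan yeast strain shifted to restrictive glucose medium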
Settings: OD615, 48 h, at 10 µM, active compounds read high
Measured Endpoint: growth inhibition (%)
Respond numerically; units are % and should not be typed.

Prompt: Field request: growth inhibition | item: COc1cc(OC)cc(-c2cc3nc(C)c(CCC(=O)O)c(C)n3n2)c1
Completion: -1.06

====

Assay: HUVEC growth inhibition – cell-based, human, primary screen (AID 575);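 also: 100% = median of untreated cell wells with 0.1% DMSO on each plate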
Details: HUVEC proliferation, CellTiter-Glo luminescence, 72 h; at 10 µM; active compounds read low
Quick rule for you: viability under 90% gets 1, anything else gets -1.

[[record]]
compound = "C[C@]12CC[C@H]3[C@@H](CCC4=CC(=O)CC[C@@]43C)[C@@H]1CC[C@@H]2C(=O)CO"
assigned_class = 1

[[record]]
compound = "COCCNC(=O)CN1CCN(C(c2ccccc2)c2ccccc2)CC1"
assigned_class = 1

[[record]]
compound = "Cc1ccc(-n2nnnc2SCC(=O)N2CCN(C(=O)c3ccco3)CC2)c(C)c1"
assigned_class = 1

[[record]]
compound = "Cn1cccc1-c1cc(C(=O)O)[nH]n1"
assigned_class = -1

[[record]]
compound = "Cc1cc(=O)n2nc(-c3ccccc3)sc2n1"
assigned_class = -1


Prompt: Dear colleague, could you confirm whether viability of COc1ccc(-c2nnc(SCC(=O)Nc3ccc(Cl)cc3)n2C)cc1 falls below 90%? Thanks.
Completion: -1

Prompt: Dear colleague, could you confirm whether viability of NCC(O)COc1ccc2c(c1)OCO2 (stereo unspecified) falls below 90%? Thanks.
Completion: -1
